- measured_on: Polyunsaturated fatty acid lipoxygenase ALOX15B (Homo sapiens) (UniProt O15296)
- Sequence (O15296 whole entry, looked up): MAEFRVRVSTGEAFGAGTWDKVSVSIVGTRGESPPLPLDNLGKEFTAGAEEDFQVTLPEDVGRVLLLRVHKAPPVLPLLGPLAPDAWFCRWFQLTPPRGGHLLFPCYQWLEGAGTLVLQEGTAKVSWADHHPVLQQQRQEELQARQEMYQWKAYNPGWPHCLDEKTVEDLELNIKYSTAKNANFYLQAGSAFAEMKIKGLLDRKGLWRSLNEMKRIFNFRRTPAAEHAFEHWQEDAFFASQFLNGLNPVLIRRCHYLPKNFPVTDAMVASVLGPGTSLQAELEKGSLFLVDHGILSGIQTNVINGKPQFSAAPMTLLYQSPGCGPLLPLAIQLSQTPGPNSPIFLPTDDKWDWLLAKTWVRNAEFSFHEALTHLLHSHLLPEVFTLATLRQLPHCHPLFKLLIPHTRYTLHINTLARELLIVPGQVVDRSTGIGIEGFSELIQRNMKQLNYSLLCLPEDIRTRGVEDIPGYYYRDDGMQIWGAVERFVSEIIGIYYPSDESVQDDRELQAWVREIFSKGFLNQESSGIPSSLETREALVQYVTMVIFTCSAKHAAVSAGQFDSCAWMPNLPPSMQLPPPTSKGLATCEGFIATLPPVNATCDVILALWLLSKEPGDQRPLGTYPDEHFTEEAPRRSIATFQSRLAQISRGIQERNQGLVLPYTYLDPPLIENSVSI
- experimental_details: Confirmation qHTS Assay for Inhibitors of 15-hLO-2 (15-human lipoxygenase 2)
- experimental_conditions: purified 15hLO-2, xylenol orange hydroperoxide absorbance; series mostly up to 57.1 µM
Records with an inconclusive call do not appear. The source made the active and inactive calls. Calls follow the shape of the dose curve; as a rule, active = well fitted inhibition curve with a large enough effect; inconclusive = small, poorly fitted or top-dose-only effect; inactive = no such curve, though single readings can be large or run the other way.
reported_metric: Potency

compound: Cc1cc(Nc2nnnn2-c2ccccc2)n(-c2ccc(Cl)cc2)n1
Potency: inactive
//
compound: CN1CCN(C(c2cccnc2)c2ccc3cccnc3c2O)CC1 (stereo not drawn)
Potency: inactive
//
compound: COc1ccc(NC(=O)CSc2nc(O)cc(=O)n2-c2ccccc2OC)cc1
Potency: inactive
//
compound: CN(C)CCC(=O)c1ccc(Cl)cc1
Potency: inactive
//
compound: O=C(Nc1nnc(-c2ccccc2)o1)c1ccc(Cl)cc1
Potency: inactive
//
compound: Cc1ccc(SCCNC(=S)Nc2ccc(C)c(C)c2)cc1
Potency: 25.1 µM (active)
//
compound: Cc1ccc(-c2ccc(/C=C3\C(=O)ON=C3c3ccccc3)o2)c([N+](=O)[O-])c1
Potency: 3.16 µM (active)
//
compound: COc1ccccc1CNc1ncncc1-c1ccoc1
Potency: inactive
//
compound: COc1ccccc1-n1c(SCC(=O)Nc2ccc(C)cc2)nc(O)cc1=O
Potency: inactive
//
compound: COC(=O)c1ccc(C(=S)N2CCOCC2)cc1
Potency: inactive

Recorded Potency (compound COc1ccc(OC)c(NC(=O)NC2(C(F)(F)F)Oc3ccccc3O2)c1 ): inactive

Lab book: Potency of OC1(c2cccc(C(F)(F)F)c2)CCN(c2ncnc3c2[nH]c2ccc(F)cc23)CC1 noted as inactive

Reported Potency of O=C(CC1C(=O)N(c2ccc(Cl)cc2)C(=S)N1CCc1ccncc1)Nc1ccc(F)cc1 (stereo not drawn) : inactive

All values here come from PubChem BioAssay AID2537.
